- system name: recombinant human FLAP protein (Homo sapiens)
- Sequence (P20292 whole entry): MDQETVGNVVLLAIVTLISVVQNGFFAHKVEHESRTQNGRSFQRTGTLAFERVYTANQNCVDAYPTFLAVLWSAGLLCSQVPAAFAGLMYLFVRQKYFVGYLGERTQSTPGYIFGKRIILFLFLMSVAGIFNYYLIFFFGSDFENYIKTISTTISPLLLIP
- method description: FLAP binding assay (SPA, displacement of [125I]L-691,831)
- condition: membranes of sf9 cells expressing human FLAP, [125I]L-691,831 probe; read-out: hFLAP binding IC50
pIC50: −log10 of the molar value.
assay metric: pIC50

Example cases with answers are listed next.
molecule	system name	pIC50
Nc1ncc(-c2ccc(C3(C(=O)Nc4cccc(CN5CCCC5)c4)CCOCC3)cc2)cn1 [Example 50]	recombinant human FLAP protein (Homo sapiens)	6.36
N#Cc1ccc(NC(=O)C2(c3ccc(-c4cnc(N)c(CO)c4)cc3)CCOCC2)nc1 [Example 179]	recombinant human FLAP protein (Homo sapiens)	7.61

a: Cc1ccc(NC(=O)C2(c3ccc(-c4cnc(N)nc4)cc3)CCC2)cn1 [Example 249]
b: CC(C)C(C)(C(=O)Nc1ccncc1)c1ccc(-c2ccc(NCCO)nc2)cc1 (stereo not shown) [Example 226]
Of a and b , whose reported pIC50 is the larger number? Your answer should be the label attached to the chosen record. a
